# PROTOCOL_TEXT: Water solubility
# Assay type: physicochemical
# TEST_CONTEXT: water; 25° C.
PROPERTY_MEASURED: solubility
Answer with the number, then the unit.

Short answer for CN(C(=O)C[N+](C)(C)CCOCC[N+](C)(C)CC(=O)N(C)C(=O)Oc1cccc2ccccc12)C(=O)Oc1cccc2ccccc12 [EXAMPLE IV] : solubility was 200 mg/mL
